biological target: hHER3 full length (human, UniProt P21860 20-1342); experiment: cell-based or functional assay
Kindly state IC50 pHER3 blocking, HRG stimulated MCF7 for each of the entries shown.
The answer should read as a number with its unit following.

Reported IC50 pHER3 blocking, HRG stimulated MCF7 for 18G11 (VHH, c-myc, His6-tagged form as expressed; also called HER3MS18G11; HER3MS018G11) VHH: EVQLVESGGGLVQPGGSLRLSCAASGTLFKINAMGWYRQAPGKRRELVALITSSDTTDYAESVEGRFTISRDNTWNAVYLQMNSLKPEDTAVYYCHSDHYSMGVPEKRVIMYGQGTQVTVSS was 2.91e-08 M

Measured IC50 pHER3 blocking, HRG stimulated MCF7 of HER3MS00072 (VHH, 18G11 M102L) VHH: EVQLVESGGGLVQPGGSLRLSCAASGTLFKINAMGWYRQAPGKRRELVALITSSDTTDYAESVEGRFTISRDNTWNAVYLQMNSLKPEDTAVYYCHSDHYSMGVPEKRVILYGQGTLVTVSS : 5.76e-08 M

Entry under test: HER3MS00073 (VHH, 18G11 M102D) VHH: EVQLVESGGGLVQPGGSLRLSCAASGTLFKINAMGWYRQAPGKRRELVALITSSDTTDYAESVEGRFTISRDNTWNAVYLQMNSLKPEDTAVYYCHSDHYSMGVPEKRVIDYGQGTLVTVSS . Its IC50 pHER3 blocking, HRG stimulated MCF7 was 8.75e-08 M

Looking up HER3MS00071 (VHH, 18G11 M99V) VHH: EVQLVESGGGLVQPGGSLRLSCAASGTLFKINAMGWYRQAPGKRRELVALITSSDTTDYAESVEGRFTISRDNTWNAVYLQMNSLKPEDTAVYYCHSDHYSVGVPEKRVIMYGQGTLVTVSS , I see its IC50 pHER3 blocking, HRG stimulated MCF7 listed as 7.35e-08 M
